Values were extracted from patent US9145399B2.

Some compounds, each annotated with its measured pIC50.
# System: Aβtotal
# PROTOCOL TEXT: Screening for γ-secretase-modulating activity in SKNBE2 cells carrying APP 695 wild type: Aβtotal in cell supernatant (Alphalisa)
# Format: cell-based
# RECORDED CONDITIONS: Homo sapiens, overnight incubation
pIC50: −log10 of the molar value.

Solved entries:
COc1cc(NC(=O)c2nc3c(-c4ccccc4Cl)cccn3n2)ccc1-n1cnc(C)c1
5.34
COc1cc(F)cc(C2CCCn3nc(Nc4ccc(-c5ccnc(C)c5)c(OC)c4)nc32)c1 (centres unmarked)
< 5.00
Cc1cc(-c2ccc(Nc3nc4n(n3)CCCC4c3ccc(F)cc3C)cc2)ccn1 (centres unmarked)
< 5.00
Cc1cc(-c2ccc(Nc3nc4n(n3)CCOC4c3ccccc3Cl)cc2F)ccn1 (centres unmarked)
5.03
COc1cc(C(=O)Nc2nc3n(n2)CCCC3c2ccc(F)cc2)ccc1-n1cnc(C)c1 (centres unmarked)
< 5.00

Next item in the queue.
Tell me measured pIC50 for Cc1cc(-c2ccc(Nc3nc4n(n3)CCOC4c3ccccc3C(F)(F)F)cc2F)ccn1 (centres unmarked) please.
< 5.00
